SYSTEM_NAME: human enteropeptidase (hEP), enterokinase (Homo sapiens, UniProt P98073)
Sequence (P98073 182-784): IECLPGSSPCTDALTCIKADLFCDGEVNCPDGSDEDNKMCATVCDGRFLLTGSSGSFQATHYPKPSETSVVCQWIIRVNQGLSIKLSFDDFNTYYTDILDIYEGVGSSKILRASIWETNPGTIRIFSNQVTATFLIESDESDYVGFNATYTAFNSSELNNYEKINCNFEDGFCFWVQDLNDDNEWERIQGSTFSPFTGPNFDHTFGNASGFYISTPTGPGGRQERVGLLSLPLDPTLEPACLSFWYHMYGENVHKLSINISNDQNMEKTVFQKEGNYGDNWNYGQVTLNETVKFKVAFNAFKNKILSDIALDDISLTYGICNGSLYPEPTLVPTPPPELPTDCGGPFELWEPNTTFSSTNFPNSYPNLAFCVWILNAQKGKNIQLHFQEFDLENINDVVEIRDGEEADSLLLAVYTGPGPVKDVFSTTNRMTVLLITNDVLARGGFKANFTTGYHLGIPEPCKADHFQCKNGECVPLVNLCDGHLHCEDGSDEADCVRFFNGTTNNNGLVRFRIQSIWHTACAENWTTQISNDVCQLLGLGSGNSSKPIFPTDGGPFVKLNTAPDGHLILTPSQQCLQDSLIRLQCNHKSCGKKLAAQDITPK
Sequence (P98073 785-1019): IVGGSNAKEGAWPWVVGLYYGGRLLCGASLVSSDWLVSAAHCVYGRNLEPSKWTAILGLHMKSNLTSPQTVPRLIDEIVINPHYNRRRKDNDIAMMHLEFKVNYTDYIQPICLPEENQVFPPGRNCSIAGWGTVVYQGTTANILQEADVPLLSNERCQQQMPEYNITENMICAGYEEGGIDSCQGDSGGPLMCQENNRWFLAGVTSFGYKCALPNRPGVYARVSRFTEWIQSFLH
QUANTITY_KIND: Kd (µM)
Kindly answer with a numeric value in µM, unit omitted.

Find the measured Kd of "N=C(N)c1ccc2cc(OC(=O)c3ccc(N=C(N)N)cc3)ccc2c1" and report it.
95.1

Source listed as paper PMC9663175.
